Target system: T1, Fas ligand (human, UniProt P48023 134-281, limits assumed)
T1 sequence (looked up): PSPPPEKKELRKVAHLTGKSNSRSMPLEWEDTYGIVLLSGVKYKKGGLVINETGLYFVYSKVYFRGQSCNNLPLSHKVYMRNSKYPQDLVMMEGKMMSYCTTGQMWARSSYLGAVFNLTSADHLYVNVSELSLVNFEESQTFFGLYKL
Measurement notes: phage ELISA
Reported property: binding result

**Q:** Report binding result for I031G11 (scFv) scFv: QVQLVQSGAEVKKPGASVKVSCTVSGDSFSRHGISWVRQAPGQGLEWMGWISVYNGDTKYAQKVQGRVTMTTDTSTNTVYMELRRLRSDDTAVYYCARDEGRDLLTGYYWPNFFDSWGRGTLVTVSSGGGGSGGGGSGGGGSALSYVLTQPPSVSGTPGQKVTISCSGSRPNIGGNTVNWYQQLPGAAPKLLIYSNSQRPSGVPDRFSGSKYGTSASLAISGLQSDDEADYYCAAWDDSLTGPVFGGGTKLTVLG please.
**A:** no binding

**Q:** What about this binder? I037E07 (scFv) scFv: QVQLVQSGAEVKKPGASVKVSCKASGYTFTNYGITWVRQAPGQGLEWMGWISAYNGNRNYAQKLQGRVTMTTDTSTSTAYMELRSLRSDDTAVYYCVRDGIDILLVPAALMDVWGRGTMVTVSSGGGGSGGGGSGGGGSQSVLTQPASVSGSPGQSITISCTGTSSDVGGYNYVSWYQQHPGKAPKLMIYEGSKRPSGVSNRFSGSKSGNTASLTISGLQAEDEADYYCSSYTTRSTRVFGGGTKLTVLG
**A:** no binding
